# experiment notes: CCTE_Shafer_MEA_dev_per_burst_interspike_interval: CCTE's Neural Network Formation Assay for Burst Interspike Interval, Shafer Lab (AID 2284044);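 also: mean spike spacing inside bursts as AUC over recordings on days 5 7 9 12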
The source made the active and inactive calls. The calls were made as follows: active = hit-call score of the fitted dose curve at least 0.9, where 1 is the maximum; inactive = score below 0.9.
In this exercise, the only acceptable responses are active, inactive

Some entries whose results are on file:
CNCCC(Oc1ccc(C(F)(F)F)cc1)c1ccccc1 (configuration not stated)
active
Cc1c(O)cccc1C(=O)N[C@@H](CSc1ccccc1)[C@H](O)CN1C[C@H]2CCCC[C@H]2C[C@H]1C(=O)NC(C)(C)C
active
[Cl-].[Cl-].[NH2-].[NH2-].[Pt+4]
inactive
CC1(C)S[C@@H]2[C@H](NC(=O)[C@H](N)c3ccc(O)cc3)C(=O)N2[C@H]1C(=O)O
inactive
NC(N)=Nc1nc(CSCCC(N)=NS(N)(=O)=O)cs1
inactive
C[C@H](CS)C(=O)N1CCC[C@H]1C(=O)O
inactive

Qu. Which result was noted for this compound in the test: "CC1(C)S[C@@H]2[C@H](NC(=O)[C@H](N)c3ccccc3)C(=O)N2[C@H]1C(=O)O"
Ans. inactive

* * *

# experiment notes: CCTE_Mundy_HCI_hN2_NOG_NeuriteLength: CCTE's Neurite Outgrowth Assay in human hN2 cells for Neurite Length, Mundy Lab (AID 2284220)
Results filed as inconclusive are left out. Active and inactive are the calls of the source. Rule for the calls: active = hit-call score of the fitted dose curve at least 0.9, where 1 is the maximum; inconclusive = response in the unintended direction; inactive = score below 0.9.
result type: AC50

CC(C)(C)NCC(O)c1cc(O)cc(O)c1 (centres undefined)
inactive
CN(C)C(=O)C(CCN1CCC(O)(c2ccc(Cl)cc2)CC1)(c1ccccc1)c1ccccc1
15.8 µM (active)
CC1(C)S[C@@H]2[C@H](NC(=O)[C@H](N)c3ccc(O)cc3)C(=O)N2[C@H]1C(=O)O
inactive
CNCCC(Oc1ccc(C(F)(F)F)cc1)c1ccccc1 (centres undefined)
12.9 µM (active)

* * *

# experiment notes: TOX21_p53_BLA_p5_viability: Viability Assessment in the Tox21 HCT-116 p53 Agonism Beta-lactamase Assay, Phase 5 (AID 2283600)
Results filed as inconclusive are left out. Activity calls are given as the source filed them. How the source made its calls: active means hit-call score of the fitted dose curve at least 0.9, where 1 is the maximum; inconclusive means response in the unintended direction; inactive means score below 0.9.
result type: outcome

As a guide, the following entries are already answered.
NS(=O)(=O)c1cc(Cl)c(Cl)c(S(N)(=O)=O)c1
inactive
O=C1O[C@H](CO)[C@@H](O)[C@H](O)[C@H]1O
inactive
CC(=O)SC[C@@H](C)C(=O)N1CCC[C@H]1C(=O)N[C@@H](Cc1ccccc1)C(=O)O
inactive
CCOC(=O)Nc1ccc(NCc2ccc(F)cc2)nc1N
inactive
O=C(O)c1cc(O)c2c(c1)C(=O)c1cccc(O)c1C2=O
inactive
COCCCN
inactive

Qu. Fill blank: measured outcome of the molecule COc1ccccc1N1CCN(CC(O)COc2cccc3ccccc23)CC1 (stereo unspecified) is ____.
Ans. inactive

Qu. Subsequent entry: "O=S(O)(O)=S"
Ans. inactive

Qu. And the next one, "CC(=O)Oc1ccc(C2(c3ccc(OC(C)=O)cc3)Oc3ccccc3NC2=O)cc1" ?
Ans. inactive

Qu. Field entry: C[N+](C)(C)CC(O)CC(=O)[O-] (stereo unspecified)
Ans. inactive

Qu. And the next one, CN(C)[C@@H]1C(=O)C(C(=O)NCN2CCCC2)=C(O)[C@@]2(O)C(=O)C3=C(O)c4c(O)cccc4[C@@](C)(O)C3C[C@@H]12 (stereo partly specified) ?
Ans. inactive

* * *

# system name: Cellular tumor antigen p53 (Homo sapiens) (UniProt P04637)
# Sequence (P04637 whole entry, looked up): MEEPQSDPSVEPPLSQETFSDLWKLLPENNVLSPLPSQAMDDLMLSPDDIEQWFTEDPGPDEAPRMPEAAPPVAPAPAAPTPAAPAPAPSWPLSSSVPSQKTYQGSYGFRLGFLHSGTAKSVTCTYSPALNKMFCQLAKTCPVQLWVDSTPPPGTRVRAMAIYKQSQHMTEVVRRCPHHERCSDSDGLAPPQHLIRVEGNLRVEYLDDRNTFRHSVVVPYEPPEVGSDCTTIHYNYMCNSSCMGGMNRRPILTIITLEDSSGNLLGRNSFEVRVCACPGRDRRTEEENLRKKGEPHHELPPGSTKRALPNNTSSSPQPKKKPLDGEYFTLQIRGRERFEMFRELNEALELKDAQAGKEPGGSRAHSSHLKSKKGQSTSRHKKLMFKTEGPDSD
# experiment notes: TOX21_p53_BLA_p2_ratio: Tox21 HCT-116 p53 Agonism Beta-lactamase Assay, Ratio, Phase 2 (AID 2283592)
# Description: TOX21_p53_BLA_p2 is a cell-based, single-readout assay that uses HCT116, a human intestinal cell line, […] in a 1536-well plate.TOX21_p53_BLA_p2_ratio is an assay readout measuring reporter gene via receptor activity and designed using inducible reporter (beta lactamase induction) detected with GAL4 b-lactamase reporter gene. […] This assay endpoint, TOX21_p53_BLA_p2_ratio, was analyzed in the positive analysis fitting direction relative to DMSO as the negative control and baseline of activity. […]
Results filed as inconclusive are left out. Activity calls are given as the source filed them. Rule for the calls: active = hit-call score of the fitted dose curve at least 0.9, where 1 is the maximum; inconclusive = response in the unintended direction; inactive = score below 0.9.
Just give me one of these, please: active, inactive

CN1CCC(OC(=O)C(Oc2ccc(Cl)cc2)Oc2ccc(Cl)cc2)CC1
inactive
O=C1c2ccccc2Cc2ccccc21
inactive

Qu. Please indicate how the test categorized "COC(=O)CCCCCCCCC(=O)OC" .
Ans. inactive

Qu. Let us now turn to "CC(C)[C@@H](C)/C=C/[C@@H](C)[C@H]1CC[C@H]2/C(=C/C=C3\C[C@@H](O)CC[C@@H]3C)CCC[C@]12C"
Ans. inactive

Qu. Next entry: CC(C)(C)C1(O)CCN2CC3c4ccccc4CCc4cccc(c43)C2C1 (stereo not drawn)
Ans. inactive

Qu. "C1CCCC1.C1CCCC1.[Cl][V][Cl]" ?
Ans. inactive

Qu. "COC(=O)CC#N" , same question.
Ans. inactive

Qu. How about C/C=C1\NC(=O)[C@H]2CSSCC/C=C/[C@H](CC(=O)N[C@H](C(C)C)C(=O)N2)OC(=O)C(C(C)C)NC1=O (stereo partly drawn) ?
Ans. active

Qu. What would you report for "CC1(C)S[C@@H]2[C@H](NC(=O)[C@H](N)c3ccc(O)cc3)C(=O)N2[C@H]1C(=O)O" ?
Ans. inactive

Qu. Subsequent entry: "CCOc1ccc(Cc2nccc3cc(OCC)c(OCC)cc23)cc1OCC"
Ans. inactive

Qu. How about "NCC[C@H](O)C(=O)N[C@@H]1C[C@H](N)[C@@H](O[C@H]2O[C@H](CN)[C@@H](O)[C@H](O)[C@H]2O)[C@H](O)[C@H]1O[C@H]1O[C@H](CO)[C@@H](O)[C@H](N)[C@H]1O" ?
Ans. inactive

* * *

# system name: Cellular tumor antigen p53 (Homo sapiens) (UniProt P04637)
# experiment notes: TOX21_p53_BLA_p5_ratio: Tox21 HCT-116 p53 Agonism Beta-lactamase Assay, Ratio, Phase 5 (AID 2283599)
Inconclusive results are not listed. Calls of active or inactive are those of the source. The calls were made as follows: active = hit-call score of the fitted dose curve at least 0.9, where 1 is the maximum; inconclusive = response in the unintended direction; inactive = score below 0.9.
result type: outcome

Example entries begin here.
C[C@@H]1CN(CCCn2c3ccccc3c3ccccc32)C[C@H](C)N1
inactive
CC(C)(C)c1ccc(C(O)CCCN2CCC(C(O)(c3ccccc3)c3ccccc3)CC2)cc1 (stereo unspecified)
inactive
COCCOC(=O)C1=C(C)NC(C)=C(C(=O)OC/C=C/c2ccccc2)C1c1cccc([N+](=O)[O-])c1 (stereo unspecified)
inactive
OCCN1CCN(CCO)CC1
inactive

Qu. Given the molecule "CCN(CC)C(=O)/C(C#N)=C/c1cc(O)c(O)c([N+](=O)[O-])c1" , what is its reported outcome?
Ans. inactive

Qu. "C=C1[C@@H]2CC[C@@H](C2)C1(C)C" , same question.
Ans. inactive

Qu. Now the same for CCc1cccc2c3c([nH]c12)C(CC)(CC(=O)O)OCC3 (stereo unspecified)
Ans. inactive

* * *

# experiment notes: TOX21_p53_BLA_p3_viability: Viability Assessment in the Tox21 HCT-116 p53 Agonism Beta-lactamase Assay, Phase 3 (AID 2283593);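 also: cells exposed to compound for 16 h before reading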
# From the text: TOX21_p53_BLA_p3 is a cell-based, single-readout assay that uses HCT116, a human intestinal cell line, […] in a 1536-well plate.TOX21_p53_BLA_p3_viability is an assay readout measuring cellular ATP content and detected with CellTiter-Glo Luciferase-coupled ATP quantitation.TOX21_p53_BLA_p3_viability used a type of viability reporter where loss-of-signal activity can be used to understand changes in the cell viability. […]
Inconclusive results are not listed. The source made the active and inactive calls. Rule for the calls: active = hit-call score of the fitted dose curve at least 0.9, where 1 is the maximum; inconclusive = response in the unintended direction; inactive = score below 0.9.
Would you mind answering with one of these outcomes? 1.0 (active), 0.0 (inactive)

Nc1ccn([C@@H]2O[C@H](CO)[C@@H](O)C2(F)F)c(=O)n1
0.0
Cc1cc2nc3c(=O)[nH]c(=O)nc-3n(C[C@H](O)[C@H](O)[C@H](O)CO)c2cc1C
0.0
CC(C)C[C@@H](NC(=O)[C@@H](O)[C@H](N)Cc1ccccc1)C(=O)O
0.0

Qu. Returns: the outcome recorded for CC(C(=O)O)c1cccc(Oc2ccccc2)c1 (stereo unspecified) in this assay.
Ans. 0.0

Qu. Here is the next molecule: O=C(O)/C=C/C(O)c1ccc(Cl)cc1 (stereo unspecified)
Ans. 0.0

Qu. Item: "CC(=O)CCc1ccccc1"
Ans. 0.0

* * *

# Read-out: Vascular cell adhesion molecule 1 (VCAM1), VCAM1 (gene 7412)
# experiment notes: BSK_CASM3C_VCAM1: BioMAP Diversity Plus: CASM3C Assay for Vascular cell adhesion molecule 1 (VCAM1) Biomarker Activity (AID 2283055);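 also: VCAM-1 protein level quantified by ELISA on the cells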
# condition set: primary human coronary artery smooth muscle cells; actives raise or lower the signal
Calls of active or inactive are those of the source. Rule for the calls: active = hit-call score of the fitted dose curve at least 0.9, where 1 is the maximum; inactive = score below 0.9.
The categories you may choose from are active, inactive

Solved entries (count: 5):
OC(C(F)(F)F)(C(F)(F)F)C(O)(C(F)(F)F)C(F)(F)F
active
CCCCCCCCCC/C=C/C1CC(=O)OC1=O (stereo not given)
inactive
Sc1nc2ccccc2s1
active
COc1cc(CNC(=O)CCCC/C=C/C(C)C)ccc1O
inactive
CCC[Si](OC(C)=O)(OC(C)=O)OC(C)=O
inactive

Qu. Outcome? CCCCCCCCCCC1CO1 (stereo not given)
Ans. active

Qu. # repeat for "O=C(C(=O)c1ccccc1)c1ccccc1"
Ans. inactive

Qu. Also "CCC(C)=NO" ?
Ans. inactive

Qu. # iterate: "Cc1cccnc1"
Ans. inactive

Qu. Now consider CN(C)CCC(c1ccc(Cl)cc1)c1ccccn1 (stereo not given) and answer again.
Ans. inactive

Qu. Continue with "CN(C)c1ccc(C(c2ccccc2)c2ccc(N(C)C)cc2)cc1"
Ans. inactive

Qu. What about CC[N+](CC)(CC(=O)Nc1c(C)cccc1C)Cc1ccccc1 (tested in a mixture with another compound) ?
Ans. inactive

Qu. Similarly, CC(C)CC(=O)CC(C)CC(C)C (stereo not given) ?
Ans. active

Qu. # repeat for "CCCCCCCCCCCCCCCCCC[N+](C)(C)C"
Ans. active

Qu. Consider next the compound "Cc1cc(-n2nc3ccc(Cl)cc3n2)c(O)c(C(C)(C)C)c1" in the same way.
Ans. inactive
